- protocolDetails: Waters SunFire C18, 150 × 2.1 mm, 3.5 µm, 35 °C, 0.3 mL/min, estimated dead time 1.1 min; A: water + 0.1% formic acid; B: acetonitrile + 0.1% formic acid; gradient (min/%B) 0/20 5/20 20/50 25/100
- testSettings: stereoisomer not certain
quantityMeasured: LC retention time (min)

(P) Cc1c(NC=O)c(=O)n(-c2ccccc2)n1C
(Q) Cc1cccc(Nc2ccncc2S(=O)(=O)NC(=O)NC(C)C)c1
(R) CC1(C)OC(=O)C(OCC2CC2)=C1c1ccc(S(C)(=O)=O)cc1
// query Please sort the compounds listed above from highest to lowest LC retention time. Please write the labels in the order that was asked for.
// result R, Q, P
(R: 20.4 min, Q: 8.5 min, P: 2.6 min)

====

- protocolDetails: Waters SunFire C18, 150 × 2.1 mm, 3.5 µm, 35 °C, 0.3 mL/min, estimated dead time 1.1 min; A: water + 0.1% formic acid; B: acetonitrile + 0.1% formic acid; gradient (min/%B) 0/20 5/20 20/50 25/100
- testSettings: stereoisomer not certain
quantityMeasured: LC retention time (min)

Before answering, review these 5 worked examples.
CCCCNc1ccc(C(=O)OCCN(C)C)cc1
4.9
CN(C)CCCOc1nn(Cc2ccccc2)c2ccccc12
9.9
Oc1ccc2c(c1)C13CCCCC1(O)C(C2)N(CC1CCC1)CC3 (centres undefined)
2.5
COC(=O)C(c1ccccc1)C1CCCCN1 (centres undefined)
1.8
Cn1cnc2c1c(=O)[nH]c(=O)n2C
2

(I) CC(C)[N+]1(C)C2CCC1CC(OC(=O)C(CO)c1ccccc1)C2 (centres undefined)
(II) CC12CCC(=O)C=C1CCC1C2C(O)CC2(C)C1CCC2(O)C(=O)CO (centres undefined)
(III) CCCc1nc(C)c2c(=O)[nH]c(-c3cc(S(=O)(=O)N4CCN(CC)CC4)ccc3OCC)nn12
(IV) C[N+]1(CCC(O)(c2ccccc2)c2cccs2)CCOCC1 (centres undefined)
// query Please rank these compounds by LC retention time in descending order. Answer format: the labels, in the requested order.
// result II, III, IV, I

(P) CN(C)CCCN1c2ccccc2CCc2ccccc21
(Q) Cc1cc(NC(=O)C2=C(O)c3ccccc3S(=O)(=O)N2C)no1
// query When their LC retention time values are compared, which is larger, P or Q ? Output the label that corresponds to your choice.
// result Q
(Q: 21.4 min, P: 9.6 min)

(1) CC12C=CC(=O)C=C1CCC1C2C(=O)CC2(C)C1CCC2(O)C(=O)CO (centres undefined)
(2) COc1ccccc1OCC(O)CO (centres undefined)
(3) CCCCC1C(=O)N(c2ccccc2)N(c2ccccc2)C1=O
// query rank_up(items): orders items by reported LC retention time in ascending numerical order. Kindly provide the labels arranged according to the requested ordering.
// result 2, 1, 3
(2: 5 min, 1: 12.4 min, 3: 24 min)

(A) CC[N+](C)(CC)CCOC(=O)C(O)(c1ccccc1)C1CCCCC1 (centres undefined)
(B) CN(C)CCOC(c1ccccc1)c1ccccc1
// query Please tell me which of the two, A or B , has the higher reported LC retention time value. In your reply, give the label of the chosen option.
// result A
(A: 9 min, B: 5.1 min)

(1) CC[N+]1(CC)CCC(=C(c2ccccc2)c2ccccc2)C1C (centres undefined)
(2) CCCN(CCC)S(=O)(=O)c1ccc(C(=O)O)cc1
// query Of 1 and 2 , which carries the smaller reported LC retention time figure? Which one? Tell me its label.
// result 1

(P) CS(=O)(=O)Nc1ccc([N+](=O)[O-])cc1Oc1ccccc1
(Q) CC1CC2C3CCC4=CC(=O)C=CC4(C)C3C(=O)CC2(C)C1(O)C(=O)CO (centres undefined)
// query Between P and Q , whose measured LC retention time reads higher? Answer by stating the label of the chosen item.
// result P

====

- protocolDetails: Waters SunFire C18, 150 × 2.1 mm, 3.5 µm, 35 °C, 0.3 mL/min, estimated dead time 1.1 min; A: water + 0.1% formic acid; B: acetonitrile + 0.1% formic acid; gradient (min/%B) 0/20 5/20 20/50 25/100
- testSettings: stereoisomer not certain
quantityMeasured: LC retention time (min)

Known LC retention time results, listed for orientation:
CCOC(=O)c1ccc(N)cc1
12.3
CN1C(C(=O)Nc2ccccn2)=C(O)c2ccccc2S1(=O)=O
15.2
CN(C)CCCN1c2ccccc2Sc2ccccc21
8.8
COc1ccc2nc(S(=O)Cc3ncc(CO)c(OC)c3C)[nH]c2c1 (stereo unspecified)
2.7
CC(C)(C)C(=O)SCC(=O)C1(O)CCC2C3CCC4=CC(=O)CCC4(C)C3C(O)CC21C (stereo unspecified)
24
CCN(CCO)CCn1c(Cc2ccccc2)nc2c1c(=O)n(C)c(=O)n2C
1.5

(1) CC12CCC(=O)C=C1C=CC1C2CCC2(C)C1CCC21CCC(=O)O1 (stereo unspecified)
(2) CC1CC2C(C(O)CC3(C)C2CCC3(O)C(=O)CO)C2(C)C=CC(=O)C=C12 (stereo unspecified)
(3) CCCCN1CCCCC1C(=O)Nc1c(C)cccc1C (stereo unspecified)
(4) CN1CC(O)c2cc(N=NC(N)=O)c(O)cc21 (stereo unspecified)
(5) CN1C(C(=O)Nc2ccccn2)=C(O)c2sccc2S1(=O)=O
// query Sort by LC retention time, descending. Please respond by ranking the labels in the order requested.
// result 1, 2, 5, 3, 4

====

- protocolDetails: Waters SunFire C18, 150 × 2.1 mm, 3.5 µm, 35 °C, 0.3 mL/min, estimated dead time 1.1 min; A: water + 0.1% formic acid; B: acetonitrile + 0.1% formic acid; gradient (min/%B) 0/20 5/20 20/50 25/100
- testSettings: stereoisomer not certain
quantityMeasured: LC retention time (min)

C=CCC1(O)CCC2C3CCC4=CC(=O)CCC4=C3C=CC21C (stereo not drawn)
22.1
Cn1c(=O)c2c(ncn2CC(O)CO)n(C)c1=O (stereo not drawn)
1.9
Cn1c(=O)c2c(ncn2CC(=O)O)n(C)c1=O
2.42
CC(C)[N+](C)(CCC(C(N)=O)(c1ccccc1)c1ccccc1)C(C)C
3.4
CC(C)(C)NCC(O)COc1nsnc1N1CCOCC1 (stereo not drawn)
1.8
CC12CCC(=O)C=C1C=CC1C2CCC2(C)C1CCC2(O)CCC(=O)O (stereo not drawn)
16.1
CN1CCOC(c2ccccc2)c2ccccc2C1 (stereo not drawn)
2.9
CC(=O)Nc1nnc(S(N)(=O)=O)s1
2.3

====

# LC retention time values compiled below
- protocolDetails: Waters SunFire C18, 150 × 2.1 mm, 3.5 µm, 35 °C, 0.3 mL/min, estimated dead time 1.1 min; A: water + 0.1% formic acid; B: acetonitrile + 0.1% formic acid; gradient (min/%B) 0/20 5/20 20/50 25/100
- testSettings: stereoisomer not certain
Supply the numeric figure in min, leaving out any unit text.

CC(C)c1c(CN(C)C(C)Cc2ccccc2)n(C)n(-c2ccccc2)c1=O (centres undefined)
10.8

// query Return reported LC retention time; argument: N=C1NC(=O)C(c2ccccc2)O1 (centres undefined)
// result 3.4

// query Which LC retention time is reported for this compound? CCOC(=O)C1(c2ccccc2)CCN(C)CC1
// result 2.2

// query Suppose we examine the compound CCCC(Cc1ccccc1)N1CCCC1 (centres undefined) ; what LC retention time value has been reported?
// result 2.9
